measured-on: ATP-dependent translocase ABCB1 (Homo sapiens)
protocol-notes: Reversal of human MDR1-mediated rhodamine 123 uptake in mouse L5178Y cells assessed as fluorescence activity ratio at 10 mM by flow cytometry relative to non p-gp expressing parental cell line
Format: cell-based
condition-summary: in the assay text read “10 µM” for “10 mM”
measured-metric: Ratio

[1] N#Cc1c(-c2ccccc2)ccn(Cc2ccccc2)c1=O
[2] O=C(OCc1ccccc1)c1c(-c2ccccc2)ccn(Cc2ccccc2)c1=O
[Q] For the pair 1 and 2 , which entry has the numerically smaller recorded Ratio? Pick one and reply with its label.
[A] 1
(1: 1.71, 2: 2.59)

* * *

measured-on: ATP-dependent translocase ABCB1 (Homo sapiens, UniProt P08183)
Sequence (P08183 whole entry): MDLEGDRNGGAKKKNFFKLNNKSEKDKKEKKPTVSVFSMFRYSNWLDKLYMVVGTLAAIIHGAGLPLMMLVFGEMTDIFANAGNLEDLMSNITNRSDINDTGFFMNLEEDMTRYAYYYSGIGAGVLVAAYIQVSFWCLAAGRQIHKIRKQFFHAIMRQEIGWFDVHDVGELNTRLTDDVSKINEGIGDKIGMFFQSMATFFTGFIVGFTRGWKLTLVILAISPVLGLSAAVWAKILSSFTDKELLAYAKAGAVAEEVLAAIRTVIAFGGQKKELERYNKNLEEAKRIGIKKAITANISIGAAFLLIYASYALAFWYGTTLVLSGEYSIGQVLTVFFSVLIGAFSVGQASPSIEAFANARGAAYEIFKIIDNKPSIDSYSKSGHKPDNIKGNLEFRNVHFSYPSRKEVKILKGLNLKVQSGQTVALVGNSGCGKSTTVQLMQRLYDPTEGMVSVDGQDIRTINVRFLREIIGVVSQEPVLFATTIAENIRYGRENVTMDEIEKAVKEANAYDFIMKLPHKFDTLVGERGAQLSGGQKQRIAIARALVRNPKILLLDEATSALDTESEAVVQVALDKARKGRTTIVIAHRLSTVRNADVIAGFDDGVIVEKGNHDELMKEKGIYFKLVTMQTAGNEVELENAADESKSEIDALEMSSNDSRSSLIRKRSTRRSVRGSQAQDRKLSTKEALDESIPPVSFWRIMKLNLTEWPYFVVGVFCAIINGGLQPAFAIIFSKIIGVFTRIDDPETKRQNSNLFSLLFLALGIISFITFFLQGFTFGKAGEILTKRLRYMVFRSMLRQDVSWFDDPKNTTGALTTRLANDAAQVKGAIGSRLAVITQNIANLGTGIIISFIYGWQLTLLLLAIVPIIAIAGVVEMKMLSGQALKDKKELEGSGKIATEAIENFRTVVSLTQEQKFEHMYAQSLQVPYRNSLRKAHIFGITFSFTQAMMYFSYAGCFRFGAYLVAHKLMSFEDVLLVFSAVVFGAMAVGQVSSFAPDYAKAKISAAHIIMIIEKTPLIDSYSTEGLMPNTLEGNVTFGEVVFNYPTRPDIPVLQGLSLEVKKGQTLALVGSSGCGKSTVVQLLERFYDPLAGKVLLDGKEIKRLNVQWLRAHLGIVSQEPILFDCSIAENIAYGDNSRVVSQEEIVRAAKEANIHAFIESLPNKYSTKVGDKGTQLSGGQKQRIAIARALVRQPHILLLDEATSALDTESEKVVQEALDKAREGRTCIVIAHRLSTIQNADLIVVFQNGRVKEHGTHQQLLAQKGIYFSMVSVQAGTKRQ
protocol-notes: Reversal of human MDR1-mediated rhodamine 123 uptake in mouse L5178Y cells assessed as fluorescence activity ratio at 10 mM by flow cytometry relative to non p-gp expressing parental cell line
Assay type: cell-based
condition-summary: in the assay text read “10 µM” for “10 mM”
measured-metric: Ratio

The cases that follow already have their Ratio on record.
Cc1ccc(-c2ccn(Cc3ccccc3)c(=O)c2C#N)cc1 : 1.56
Cc1ccccc1-c1ccn(Cc2ccccc2)c(=O)c1C#N : 1.83
N#Cc1c(Cc2ccccc2)ccn(Cc2ccccc2)c1=O : 1.63

[1] COc1ccccc1-c1ccn(Cc2ccccc2)c(=O)c1C#N
[2] COC(=O)c1c(-c2ccccc2C)ccn(Cc2ccccc2)c1=O
[Q] Hi, I'm comparing 1 with 2 and wondering which one has the bigger number for Ratio. Any idea? Pick one and reply with its label.
[A] 1

The reported numbers originate from ChEMBL document CHEMBL1914416.
